Just for reference, patent US20250170112A1 is where these values come from.

- assayed.target: human A2B (Homo sapiens)
- Sequence (P29275 whole entry): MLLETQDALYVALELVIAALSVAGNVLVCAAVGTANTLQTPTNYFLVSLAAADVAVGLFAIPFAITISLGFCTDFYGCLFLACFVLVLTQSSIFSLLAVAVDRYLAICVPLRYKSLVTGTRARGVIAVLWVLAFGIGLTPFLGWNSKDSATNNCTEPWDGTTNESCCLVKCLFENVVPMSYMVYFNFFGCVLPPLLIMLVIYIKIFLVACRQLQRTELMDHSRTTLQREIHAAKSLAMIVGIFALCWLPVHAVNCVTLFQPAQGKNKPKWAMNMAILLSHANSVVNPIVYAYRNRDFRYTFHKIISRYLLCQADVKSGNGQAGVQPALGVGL
- test.name: cAMP HTRF assay for Gs coupled receptor, agonist test
- assay.context: agonist activity; HEK293 cells expressing recombinant human A2B; read-out: A2BAR EC50
pEC50: −log10 of the molar value.
measure.name: pEC50

# annotated cases, reported pEC50 shown
>>> reported_result("CNC(=O)CSc1nc(N2CCC2)c(C#N)c(-c2ccc(OCCOC)cc2)c1C#N")
"< 5.00"
>>> reported_result("COCCOc1ccc(-c2c(C#N)c(N)nc(S[C@@H](C)c3ccccn3)c2C#N)cc1")
"< 5.00"
>>> reported_result("N#Cc1c(SCc2cccnc2)nc(N2CCC2)c(C#N)c1-c1ccc(OC(F)(F)CO)cc1")
6.70
>>> reported_result("COCCOc1ccc(-c2c(C#N)c(N)nc(S[C@@H](C)c3cccnc3)c2C#N)cc1")
"< 5.00"
>>> reported_result("COCCOc1ccc(-c2c(C#N)c(C)nc(N)c2C#N)cc1")
"< 5.00"

Prompt: Consider the compound `N#Cc1c(N)nc(SC2CCOCC2)c(C#N)c1-c1ccc(OCCO)cc1` and give its measured pEC50.
Completion: < 5.00

Prompt: Also `N#Cc1c(SCc2cccnc2)nc(N2CCC2)c(C#N)c1-c1ccc(OCCOC(F)F)cc1` , if possible.
Completion: < 5.00

Prompt: Now the compound N#Cc1cnc(SCC2CCCO2)c(C#N)c1-c1ccc(OCCO)cc1 (stereo not shown)
Completion: 5.23

Prompt: Also CC(O)COc1ccc(-c2c(C#N)c(SCc3cccnc3)nc(N3CCCC3)c2C#N)cc1 (stereo not shown) ?
Completion: 8.28

Prompt: Also N#Cc1c(N)nc(SCC2COC2)c(C#N)c1-c1ccc(OC2CCOC2)cc1 (stereo not shown) , if possible.
Completion: < 5.00

Prompt: Try this compound next: `N#Cc1c(N)nc(SCc2cccc3[nH]cnc23)c(C#N)c1-c1ccc(OCCO)cc1`
Completion: 7.87

Prompt: Next compound: `N#Cc1c(N)nc(SCC2COC2)c(C#N)c1-c1ccc(OC(F)(F)COC(F)F)cc1`
Completion: < 5.00
